Attribution: paper PMC8388771

Record set of MIC for target or system C. albicans ATCC 90028.

Example cases with answers are listed next.
{"Compound": "CC(C)CCc1cn(-c2ccccc2OCC(=O)N[C@H](CCCNC(=N)N)Cn2cc(C3CCCC3)nn2)nn1.Cl [Compound 11]", "MIC": "> 32 µg/mL"}
{"Compound": "CC(C)CCc1cn(-c2ccccc2OCC(=O)N[C@H](CCCNC(=N)N)Cn2cc(C3CCCCC3)nn2)nn1 [Compound 10]", "MIC": "> 32 µg/mL"}

We next turn to a different compound, shown below.
Task item: Entry CC(C)CCc1cnnn1-c1ccccc1OCC(=O)N[C@H](CCCNC(=N)N)Cn1cc(C2CCCCC2)nn1 [Compound 14] : reported MIC = ?
Reply: > 32 µg/mL
